# Tested on: Wolbachia pipientis
# test protocol: Anti-Wolbachia Cell-Based Screen
# Assay type: functional
# Parameters: scale not given: in the data most compounds retested in dose-response had high values
# settings: 5 µM
In all, about 48,000 compounds went through this assay and about 13,000 (27%) showed an effect of 50% or more. Some of the results follow.
metric name: Percent Effect
Reply with a number, then the unit it belongs to.

molecule	subject of test	Percent Effect
CCc1nsc(NC2CCCn3nc(COC)nc32)n1 (configuration not stated)	Wolbachia pipientis	-2.766%
COc1ccc(S(=O)(=O)N2CCC[C@@H]3CN(C(=O)C4CC4)C[C@@H]32)cc1	Wolbachia pipientis	61.28%
CC(C)(O)c1cn(C2CCN(c3ncccc3Cl)CC2)nn1	Wolbachia pipientis	-4.75%
COc1ccc(S(=O)(=O)N2CCC[C@@H]3CN(C(=O)C4CC4)C[C@@H]32)cc1F	Wolbachia pipientis	83.03%
COCCn1ccc2cc(C(=O)N3CCN(S(C)(=O)=O)CC3)ccc21	Wolbachia pipientis	125.8%

Pending molecule:
Query: I am curious: what Percent Effect value has been reported for COCCN1C(=O)CC(c2cccnc2)C12CCN(C(=O)C1CC1)CC2.O=C(O)C(F)(F)F (configuration not stated) ?
Reply: 106.6%
